# System: HCI-023 (organoid from a triple-negative breast cancer xenograft)
# Measurement notes: CTG-3D luminescence at 96 h relative to day-0 seeding control (ratio to day 0); higher = more growth / less cytotoxicity; PDxO 3D drug screen, 96 h, CTG-3D normalised to day-0 seeding control.
# Reported conditions: 1 µM; days in culture: 128
Outcome: t for CTG-3D luminescence at 96 h of at least 1; f for anything lower.

# Compound, Tested system, Assigned label
data = [
    ("NC(=O)Nc1cc(-c2cccc(F)c2)sc1C(=O)N[C@H]1CCCNC1 [AZD7762]", "HCI-023", "f"),
    ("CC1(C)CCC(c2ccc(Cl)cc2)=C(CN2CCN(c3ccc(C(=O)NS(=O)(=O)c4ccc(N[C@H](CCN5CCOCC5)CSc5ccccc5)c(S(=O)(=O)C(F)(F)F)c4)cc3)CC2)C1 [navitoclax]", "HCI-023", "t"),
    ("CN(Cc1cnc2nc(N)nc(N)c2n1)c1ccc(C(=O)N[C@@H](CCC(=O)O)C(=O)O)cc1 [methotrexate]", "HCI-023", "t"),
    ("CC(C)n1nc(-c2ccc3oc(N)nc3c2)c2c(N)ncnc21 [sapanisertib]", "HCI-023", "f"),
    ("Cc1cc(Nc2ncnc3ccc(NC4=NC(C)(C)CO4)cc23)ccc1Oc1ccn2ncnc2c1 [tucatinib]", "HCI-023", "t"),
    ("O=C(O)C1(C(=O)O)CCC1.[NH2-].[NH2-].[Pt+2] [carboplatin]", "HCI-023", "t"),
    ("C[C@@H]1COCCN1c1cc(C2([S@](C)(=N)=O)CC2)nc(-c2cc[nH]c3nccc2-3)n1 [ceralasertib]", "HCI-023", "f"),
    ("CCN(c1cc(C#CCN2CCOCC2)cc(C(=O)NCc2c(C)cc(C)[nH]c2=O)c1C)[C@H]1CC[C@H](N(C)CCOC)CC1", "HCI-023", "t"),
    ("COc1cc2c(Oc3ccc4[nH]c(C)cc4c3F)ncnc2cc1OCCCN1CCCC1 [cediranib]", "HCI-023", "f"),
]
